- assay_protocol: Dynamic solubility evaluation in water and biological menstruums
- Format: physicochemical
- condition: SGF, 37 °C, simulated gastric fluid, thermodynamic from solid, SGF, 24 hours, 37° C., feeding 10 mg/mL; read-out: S: solubility
- Procedure: The dynamic solubility of the crystal form B of the sulfate, the crystal form A of the maleate and the crystal form C of the hydrochloride in water and three biological menstruums was evaluated.
Counter-ions that a name gives are not always drawn.
observed_property: solubility at 24 h (µg/mL)
Give a bare numeral; the unit µg/mL is implied.

-- ask Please give measured solubility at 24 h of the following entry: CN(c1ncnc2[nH]ccc12)[C@@H]1CCc2cc(C#N)nn2C1 [Crystal form A of maleate]
-- reply 3900

Where do the numbers come from? From patent US20240002404A1.
